# run description: BET inhibitor-based combinations targeting novel dependencies in MECOM-rearranged (r) AML: HNT-34 cell line (AID 2202234); note: nearly all actives have a fitted effect of over 35% in size
# condition info: HNT-34 AML viability, CellTiter-Glo luminescence, 48 h; series mostly up to 46 µM
Inconclusive results are not listed. Activity calls are given as the source filed them. Calls come from the whole dose curve; as a rule, active = well fitted inhibition curve with a large enough effect; inconclusive = small, poorly fitted or top-dose-only effect; inactive = no such curve, though single readings can be large or run the other way. Positions of bridges follow the written chain, without caps; N, C: chain ends. Non-standard residues stand in square brackets, D forms with d. Residues, ends and D or L forms follow the SMILES beside them. *: point of attachment. X1 = CCC(C)C(N)C1=NC(C(=O)*)CS1; dOrn = NCCC[C@@H](N)C(=O)O
Classes used: active, inactive

{"molecule": "N#Cc1ccc(Oc2ccc3c(c2)COB3O)cc1", "assigned category": "inactive"}
{"molecule": "O=c1cc(-c2ccccc2)oc2cc(O)cc(O)c12", "assigned category": "active"}
{"molecule": "COc1cc2c(Oc3ccc(-c4cnc(Nc5ccc(F)cc5)n(C)c4=O)cc3F)ccnc2cc1OCCCN1CCOCC1", "assigned category": "active"}
{"molecule": "COc1ccc(Cc2nccc3cc(OC)c(OC)cc23)cc1OC", "assigned category": "active"}
{"molecule": "CC(C)CNc1ccnc(NCc2csc(-c3ccccc3)n2)n1", "assigned category": "active"}
{"molecule": "O=c1ccn([C@@H]2O[C@H](CO)[C@H](O)[C@@H]2F)c(=O)[nH]1", "assigned category": "inactive"}
{"molecule": "Cc1nc(Nc2n[nH]c3c2CN(C(=O)N[C@H](CN(C)C)c2ccccc2)C3(C)C)c2sccc2n1", "assigned category": "active"}
{"molecule": "C[C@H](NC(=O)Cc1cc(F)cc(F)c1)C(=O)N[C@@H]1C(=O)N(C)c2ccccc2-c2ccccc21", "assigned category": "inactive"}
{"molecule": "Cn1c2ccccc2c2c3c(c4c5ccccc5n(CCC#N)c4c21)CNC3=O", "assigned category": "active"}
{"molecule": "CCCc1nc2c(C)cc(-c3nc4ccccc4n3C)cc2n1Cc1ccc(-c2ccccc2C(=O)O)cc1", "assigned category": "inactive"}
{"molecule": "CCC(C)C(N)C1=NC(C(=O)N[C@@H](CC(C)C)C(=O)N[C@H](CCC(=O)O)C(=O)N[C@H](C(=O)N[C@H]2CCCCNC(=O)[C@H](CC(N)=O)NC(=O)[C@@H](CC(=O)O)NC(=O)[C@H](Cc3cnc[nH]3)NC(=O)[C@@H](Cc3ccccc3)NC(=O)[C@H]([C@@H](C)CC)NC(=O)[C@@H](CCCN)NC2=O)[C@@H](C)CC)CS1 (some centres not stated) (X1-L[dE]IK[dOrn]I[dF]H[dD]N; lactam 4-C)", "assigned category": "inactive"}
{"molecule": "Nc1cccc2c1C(=O)N(C1CCC(=O)NC1=O)C2=O (configuration not stated)", "assigned category": "inactive"}
{"molecule": "COc1ccc(CNc2nc(N(CCO)CCO)nc3c2ncn3C(C)C)cc1", "assigned category": "active"}
{"molecule": "Cn1c(=O)c(F)c(Nc2ccc(I)cc2F)c2c(=O)n(C[C@@H](O)CO)cnc21", "assigned category": "active"}
{"molecule": "N[C@@H](Cc1ccc(O)c(O)c1)C(=O)O", "assigned category": "inactive"}
{"molecule": "CCOc1cc2ncc(C#N)c(Nc3ccc(OCc4ccccn4)c(Cl)c3)c2cc1NC(=O)/C=C/CN(C)C", "assigned category": "active"}
{"molecule": "C=CCn1c(=O)c2cnc(Nc3ccc(N4CCN(C)CC4)cc3)nc2n1-c1cccc(C(C)(C)O)n1", "assigned category": "active"}
{"molecule": "Cc1cc(OCCCS(C)(=O)=O)cc(C)c1-c1cccc(COc2ccc3c(c2)OC[C@H]3CC(=O)O)c1", "assigned category": "inactive"}
{"molecule": "CCOC(=O)C(C)(C)Oc1ccc(Cl)cc1", "assigned category": "inactive"}
{"molecule": "Fc1cc(-c2cccc3ncc(-c4cnn(C5CCNCC5)c4)nc23)cc(F)c1CN1CCOCC1", "assigned category": "active"}
{"molecule": "Nc1nc(NCCNc2ncc(-n3ccnc3)c(-c3ccc(Cl)cc3Cl)n2)ccc1[N+](=O)[O-]", "assigned category": "active"}
{"molecule": "Clc1ccc(COC(Cn2ccnc2)c2ccc(Cl)cc2Cl)c(Cl)c1 (configuration not stated)", "assigned category": "active"}
{"molecule": "Cc1ccc(C(=O)c2cc(O)c(O)c([N+](=O)[O-])c2)cc1", "assigned category": "inactive"}
{"molecule": "Nc1ncnc2c1C(=O)N(c1ccc(C3CCC(CC(=O)O)CC3)cc1)CCO2 (configuration not stated)", "assigned category": "inactive"}
{"molecule": "CCCCN(CCCC)C(=O)CN1C[C@H](c2ccc3c(c2)OCO3)[C@@H](C(=O)O)[C@@H]1c1ccc(OC)cc1", "assigned category": "inactive"}
{"molecule": "CCCC(CCC)C(=O)Nc1ccn([C@@H]2O[C@H](CO)[C@@H](O)C2(F)F)c(=O)n1", "assigned category": "active"}
{"molecule": "CC(=O)O[C@H]1C[C@@H]2CC[C@H]3[C@H]4C[C@H]([N+]5(C)CCCCC5)[C@@H](OC(C)=O)[C@@]4(C)CC[C@@H]3[C@@]2(C)C[C@H]1[N+]1(C)CCCCC1", "assigned category": "inactive"}
{"molecule": "Cc1c(CN2CCN(S(C)(=O)=O)CC2)sc2c(N3CCOCC3)nc(-c3cnc(N)nc3)nc12", "assigned category": "active"}
{"molecule": "CNC(=O)c1c(F)cccc1Nc1nc(Nc2cc3c(cc2OC)CCN3C(=O)CN(C)C)nc2[nH]ccc12", "assigned category": "active"}
{"molecule": "O=C(NC[C@H](O)CN1CCc2ccccc2C1)c1cc(NC2COC2)ncn1", "assigned category": "inactive"}
{"molecule": "CNC(=O)c1ccccc1Nc1nc(Nc2ccc(N3CCOCC3)cc2OC)ncc1Cl", "assigned category": "active"}
{"molecule": "O=C(Nc1ccc([N+](=O)[O-])cc1Cl)c1cc(Cl)ccc1O", "assigned category": "active"}
{"molecule": "COc1cc2ncnc(Nc3cccc(Cl)c3)c2cc1OC", "assigned category": "active"}
{"molecule": "O=C1CCC(N2C(=O)c3ccccc3C2=O)C(=O)N1 (configuration not stated)", "assigned category": "inactive"}
{"molecule": "Nc1ncnc2c1nc(Cl)n2[C@@H]1O[C@H](CO)[C@@H](O)[C@@H]1O", "assigned category": "active"}
{"molecule": "COC(=O)Nc1ccc(-c2nc(N3CCOCC3)c3cnn(C4CCN(Cc5cccnc5)CC4)c3n2)cc1", "assigned category": "active"}
{"molecule": "NCCCC(O)(P(=O)(O)O)P(=O)(O)O", "assigned category": "inactive"}

###

Reported activation by item:
# measured on: Cellular tumor antigen p53 (Homo sapiens) (UniProt P04637)
# Sequence (P04637 whole entry, looked up): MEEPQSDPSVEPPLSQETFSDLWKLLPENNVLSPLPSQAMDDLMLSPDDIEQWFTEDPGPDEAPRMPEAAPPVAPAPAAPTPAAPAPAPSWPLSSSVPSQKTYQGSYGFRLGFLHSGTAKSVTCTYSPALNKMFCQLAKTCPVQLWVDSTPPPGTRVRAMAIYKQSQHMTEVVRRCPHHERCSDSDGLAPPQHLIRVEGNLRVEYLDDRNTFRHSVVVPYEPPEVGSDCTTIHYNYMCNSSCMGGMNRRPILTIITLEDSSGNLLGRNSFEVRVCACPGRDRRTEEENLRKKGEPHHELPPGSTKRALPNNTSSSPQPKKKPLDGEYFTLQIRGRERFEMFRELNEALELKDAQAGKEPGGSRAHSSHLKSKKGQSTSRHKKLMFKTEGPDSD
# run description: Primary qHTS for small molecule compounds that upregulate eGFP-tagged delta133p53alpha (in N-terminal) cells. (AID 2060322);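 note: cells pre-induced with doxycycline then dosed without doxycycline; 0% = DMSO vehicle and 100% = reference activator; nearly all actives have a fitted effect of over 75% in size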
# condition info: NCI-H358 eGFP-delta133p53alpha fluorescence, 24 h; stronger effect = higher value
Records with an inconclusive call do not appear.

{"molecule": "CN1[C@@H]2CC(OC(=O)[C@H](CO)c3ccccc3)C[C@H]1[C@@H]1O[C@@H]12 (stereo partly drawn)", "activation (%)": -10.7}
{"molecule": "C=C1CC2[C@]3(C)C(=C(O)C(=O)[C@@]2(C)[C@]2(C(=O)OC)C(=O)C(C)OC(=O)[C@@]12C)C(C)(C)C(=O)CC3O (stereo partly drawn)", "activation (%)": 18.3}
{"molecule": "CC(O)C(C)n1ncn(-c2ccc(N3CCN(c4ccc(OCC5COC(Cn6cncn6)(c6ccc(Cl)cc6Cl)O5)cc4)CC3)cc2)c1=O (stereo not drawn)", "activation (%)": -5.67}
{"molecule": "CNC(=O)c1ccccc1Sc1ccc2c(C=Cc3ccccn3)n[nH]c2c1", "activation (%)": -28.7}
{"molecule": "COc1cc(-c2ccc(O)cc2)c(OC)c(O)c1C1=CC(=O)OC1CC(=O)O (stereo not drawn)", "activation (%)": 13.7}
{"molecule": "COc1cc(C2c3cc4c(c(O)c3CC(CO)C2C(=O)O)OCO4)cc(OC)c1O (stereo not drawn)", "activation (%)": 9.82}
{"molecule": "CCN(CC)c1ncnc2c1ncn2[C@@H]1O[C@H](COP(=O)(O)OP(=O)(O)C(Br)(Br)P(=O)(O)O)[C@@H](O)[C@H]1O", "activation (%)": -18.4}
{"molecule": "CNC(=O)c1ccc2c(c1)CCO[C@H]2CCN1CCN(c2ccc(C(N)=O)cc2)CC1", "activation (%)": 8.11}
{"molecule": "Clc1ccc(N2CCN(Cc3c[nH]c4ncccc34)CC2)cc1", "activation (%)": -17.7}
{"molecule": "CCS(=O)(=O)c1ccc(OC)c(C(=O)OC)c1", "activation (%)": 19.8}
{"molecule": "CC1(C)CC[C@]2(C(=O)O[C@@H]3O[C@H](CO)[C@@H](O)[C@H](O)[C@H]3O)CC[C@]3(C)C(=CCC4[C@@]5(C)C[C@@H](O)[C@H](O)[C@@](C)(CO)C5CC[C@]43C)C2C1 (stereo partly drawn)", "activation (%)": 8.4}
{"molecule": "C[C@@H]1[C@H](O)[C@@H](C)C=CC=CC=CC=CC=CC=CC=C[C@H](O[C@@H]2O[C@H](C)[C@H](O)[C@H](N)[C@@H]2O)C[C@@H]2O[C@](O)(C[C@@H](O)C[C@@H](O)[C@H](O)CC[C@@H](O)C[C@@H](O)CC(=O)O[C@H]1C)C[C@H](O)[C@@H]2C(=O)O", "activation (%)": -1.15}
{"molecule": "O=C(O)CCCC[P+](c1ccccc1)(c1ccccc1)c1ccccc1", "activation (%)": 20.9}
{"molecule": "CCNc1nc(Nc2cc(F)c(C(=O)N3CCOCC3)cc2OC)ncc1C(F)(F)F", "activation (%)": 10.7}
{"molecule": "COC(=O)CC[C@@H](C)C1CCC2C3CCC4C[C@H](OC(C)=O)CCC4(C)C3C[C@H](O)C21C (stereo partly drawn)", "activation (%)": 3.67}
{"molecule": "Cn1c(=O)c2[nH]c(Br)nc2n(C)c1=O", "activation (%)": -3.95}
{"molecule": "C[C@]12CCC(=O)C=C1C=C[C@@H]1[C@@H]2CC[C@@]2(C)[C@H]1CC[C@@]21CCC(=O)O1", "activation (%)": -33.3}
{"molecule": "C=CC(C)(O)CC/C=C(/C)COC(=O)C(C)C1CCC(C)(C=C)O1 (stereo not drawn)", "activation (%)": 5.36}
{"molecule": "C=C1CCC2C(C)(C)CC(O)CC2(C)C1CCC(C)CC(=O)O (stereo not drawn)", "activation (%)": 2.68}
{"molecule": "CC(=O)N1CCN(c2ccc(O)cc2)CC1", "activation (%)": -15.3}
{"molecule": "CCOC(=O)c1sc(NC(=O)[C@H](C(C)C)n2c(=O)[nH]c3ccccc3c2=O)nc1C", "activation (%)": 14.3}
{"molecule": "CC(=O)OCC1=CCC2C(C)(C)CCCC2(C)C12CCC(C)(CC(=O)O)O2 (stereo not drawn)", "activation (%)": 25.9}
{"molecule": "Cc1cc(-c2nncc3c(C(C)(C)C)c(OCc4ncnn4C)nn23)no1", "activation (%)": 6.68}
{"molecule": "COc1cc(C(C)C)c(Oc2cnc(N)nc2N)cc1I", "activation (%)": 3.67}
{"molecule": "CC(C)CC(=O)OC[C@H]1O[C@@](COC(=O)CC(C)C)(O[C@H]2O[C@H](CO)[C@@H](O)[C@H](O)[C@H]2O)[C@@H](OC(=O)CC(C)C)[C@@H]1OC(=O)CC(C)C", "activation (%)": -0.763}
{"molecule": "CC1CCC2(NC1)OC1C(=O)C3C4CCC5CC(O[C@@H]6O[C@H](CO)[C@@H](O)[C@H](O)[C@H]6O[C@@H]6O[C@@H](C)[C@H](O)[C@@H](O)[C@H]6O)CCC5(C)C4CCC3(C)C1C2C (stereo partly drawn)", "activation (%)": 10.7}
{"molecule": "C=C(CCO)C(=O)OCC1OCC(OC(=O)C(=C)CCO[C@@H]2O[C@H](CO)[C@@H](O)[C@H](O)[C@H]2O)C(O)C1O (stereo partly drawn)", "activation (%)": -8.4}
{"molecule": "CCc1cccc2c3c([nH]c12)[C@@](CC)(CC(=O)O)OCC3", "activation (%)": -4.77}
{"molecule": "Cc1cc(CS(=O)(=O)c2ccccc2)cc(OCc2ccc(CN3CCC[C@@H]3CO)cc2)c1", "activation (%)": 3.67}
{"molecule": "Nc1nc(=O)n([C@@H]2O[C@H](CO)[C@@H](O)[C@@H]2F)cc1I", "activation (%)": -22}
{"molecule": "CC[N+](CC)(CC)CC(=O)Nc1c(C)cccc1C", "activation (%)": -4.9}
{"molecule": "CC1(C)CC2C3=CCC4[C@@]5(C)CC[C@H](OC6OCC(O)C(OC7OC(CO)C(O)C(O)C7O)C6O)C(C)(C)C5CC[C@@]4(C)[C@]3(C)C[C@H](O)[C@@]2(CO)[C@H](OC(=O)c2ccccc2)C1 (stereo partly drawn)", "activation (%)": 19.8}
{"molecule": "COc1cc(O)cc(C)c1C(=O)OC1C(CO)OC(n2ccc(=O)[nH]c2=O)C1OC(C)=O (stereo not drawn)", "activation (%)": -6.11}
